These measurements were taken from the OligoGym collection.

- assay.conditions: siRNA; also: test system not given here
HELM strings list units from the 5' end as sugar, base in round brackets, then linkage (d deoxyribose, r ribose, m 2'-O-methyl, p phosphodiester). Strings are as the collection lists them, not checked against the first reports. ss, as = sense and antisense strand; [hna] = hexitol nucleic acid; [fl2r] = 2'-fluoro
The substances listed here are annotated with their target mRNA knockdown.
quantity: target mRNA knockdown (%)

substance	unit.tag	measurement
RNA1{[hna](G)p.[hna](A)p.[hna](C)p.r(G)p.r(U)p.r(A)p.r(A)p.r(A)p.r(C)p.r(G)p.r(G)p.r(C)p.r(C)p.r(A)p.r(C)p.r(A)p.r(A)p.[hna](G)p.[hna](U)p.[hna](U)p.d(T)}|RNA2{r(A)p.r(C)p.[hna](U)p.r(U)p.r(G)p.r(U)p.r(G)p.r(G)p.r(C)p.r(C)p.r(G)p.r(U)p.r(U)p.r(U)p.r(A)p.r(C)p.r(G)p.[hna](U)p.[hna](C)p.[hna](G)p.d(T)}$$$RNA1{StrandType:ss}|RNA2{StrandType:as}$	%	80.6
RNA1{r(G)p.r(A)p.r(A)p.r(A)p.r(C)p.r(U)p.r(G)p.r(G)p.[fl2r](U)p.r(A)p.r(C)p.r(U)p.r(U)p.r(U)p.r(C)p.r(C)p.r(C)p.r(C)p.r(C)p.r(T)p.r(T)}|RNA2{r(G)p.r(G)p.r(G)p.r(G)p.r(G)p.r(A)p.r(A)p.r(A)p.r(G)p.[fl2r](U)p.r(A)p.r(C)p.r(C)p.r(A)p.r(G)p.r(U)p.r(U)p.r(U)p.r(C)p.r(T)p.r(T)}$$$RNA1{StrandType:ss}|RNA2{StrandType:as}$	%	58

----------
Each entry below lists one item and its recorded target mRNA knockdown value.
- assay.conditions: siRNA
HELM strings list units from the 5' end as sugar, base in round brackets, then linkage (d deoxyribose, r ribose, m 2'-O-methyl, p phosphodiester). Strings are as the collection lists them, not checked against the first reports. ss, as = sense and antisense strand; [una] = unlocked nucleic acid
quantity: target mRNA knockdown (%)

substance	quantity	measurement
RNA1{r(G)p.r(U)p.r(A)p.r(U)p.r(G)p.r(A)p.r(C)p.r(C)p.r(G)p.r(A)p.r(C)p.r(U)p.r(A)p.r(C)p.r(G)p.r(C)p.r(G)p.r(U)p.r(A)p.r(T)p.r(T)}|RNA2{r(U)p.r(U)p.r(C)p.r(A)p.r(G)p.r(U)p.r(G)p.r(U)p.r(G)p.r(A)p.r(U)p.[una](G)p.r(A)p.r(C)p.r(A)p.r(C)p.r(U)p.r(U)p.r(G)p.r(T)p.r(T)}$$$RNA1{StrandType:ss}|RNA2{StrandType:as}$	target mRNA knockdown	59
RNA1{r(G)p.m(C)p.r(A)p.r(A)p.r(G)p.r(U)p.r(G)p.r(G)p.r(C)p.r(A)p.r(A)p.r(G)p.r(A)p.r(G)p.r(G)p.r(A)p.r(U)p.m(U)p.r(A)p.r(T)p.r(T)}|RNA2{m(U)p.r(A)p.r(A)p.r(U)p.r(C)p.r(C)p.r(U)p.r(C)p.r(U)p.m(U)p.r(G)p.r(C)p.m(C)p.r(A)p.r(C)p.r(U)p.m(U)p.r(G)p.r(C)p.r(T)p.r(T)}$$$RNA1{StrandType:ss}|RNA2{StrandType:as}$	target mRNA knockdown	68
RNA1{r(G)p.r(G)p.r(A)p.r(C)p.r(A)p.r(U)p.r(U)p.r(C)p.r(A)p.r(G)p.r(A)p.r(A)p.r(C)p.r(A)p.r(A)p.r(G)p.r(A)p.r(A)p.r(A)p.[una](U)p.[una](U)}|RNA2{r(U)p.r(U)p.r(U)p.[una](C)p.r(U)p.r(U)p.r(G)p.r(U)p.r(U)p.r(C)p.r(U)p.r(G)p.r(A)p.r(A)p.r(U)p.r(G)p.r(U)p.r(C)p.r(C)p.[una](U)p.[una](U)}$$$RNA1{StrandType:ss}|RNA2{StrandType:as}$	target mRNA knockdown	50

----------
- assay.conditions: siRNA
HELM strings list units from the 5' end as sugar, base in round brackets, then linkage (d deoxyribose, r ribose, m 2'-O-methyl, p phosphodiester). Strings are as the collection lists them, not checked against the first reports. ss, as = sense and antisense strand; [lna] = locked nucleic acid (LNA)
Measured target mRNA knockdown by item

substance	unit.tag	target mRNA knockdown
RNA1{r(C)p.r(U)p.r(U)p.r(A)p.r(C)p.r(G)p.r(C)p.r(U)p.r(G)p.r(A)p.r(G)p.r(U)p.r(A)p.r(C)p.r(U)p.r(U)p.r(C)p.r(G)p.r(A)p.r(T)p.r(T)}|RNA2{r(U)p.r(C)p.r(G)p.r(A)p.r(A)p.r(G)p.r(U)p.r(A)p.r(C)p.r(U)p.r(C)p.r(A)p.[lna](G)p.r(C)p.r(G)p.r(U)p.r(A)p.r(A)p.r(G)p.r(T)p.r(T)}$$$RNA1{StrandType:ss}|RNA2{StrandType:as}$	%	65
RNA1{r(C)p.m(U)p.r(G)p.r(A)p.r(C)p.r(C)p.r(G)p.r(G)p.r(A)p.r(A)p.r(G)p.r(C)p.r(G)p.r(C)p.r(U)p.m(U)p.r(A)p.r(A)p.r(A)p.r(T)p.r(T)}|RNA2{r(U)p.r(U)p.m(U)p.r(A)p.r(A)p.r(G)p.r(C)p.r(G)p.r(C)p.r(U)p.r(U)p.r(C)p.r(C)p.r(G)p.r(G)p.r(U)p.m(C)p.r(A)p.r(G)p.r(T)p.r(T)}$$$RNA1{StrandType:ss}|RNA2{StrandType:as}$	%	85
RNA1{r(G)p.r(A)p.r(G)p.r(A)p.r(G)p.r(A)p.r(G)p.r(A)p.r(C)p.r(G)p.r(G)p.r(U)p.r(G)p.r(G)p.r(A)p.r(A)p.r(G)p.r(A)p.r(A)p.r(T)p.r(T)}|RNA2{r(U)p.r(U)p.r(C)p.r(U)p.r(U)p.r(C)p.r(C)p.m(A)p.r(C)p.r(C)p.r(G)p.r(U)p.r(C)p.r(U)p.r(C)p.r(U)p.r(C)p.r(U)p.r(C)p.r(T)p.r(T)}$$$RNA1{StrandType:ss}|RNA2{StrandType:as}$	%	74

----------
Item-by-item account of target mRNA knockdown
- assay.conditions: siRNA
HELM strings list units from the 5' end as sugar, base in round brackets, then linkage (d deoxyribose, r ribose, m 2'-O-methyl, p phosphodiester). Strings are as the collection lists them, not checked against the first reports. ss, as = sense and antisense strand; [lna] = locked nucleic acid (LNA); [fl2r] = 2'-fluoro
quantity: target mRNA knockdown (%)

substance	quantity	unit.tag	measurement
RNA1{r(C)p.r(U)p.r(U)p.r(A)p.r(C)p.r(G)p.r(C)p.r(U)p.r(G)p.r(A)p.r(G)p.r(U)p.r(A)p.r(C)p.r(U)p.r(U)p.r(C)p.r(G)p.r(A)p.d(T)p.d(T)}|RNA2{[lna](T)p.r(C)p.r(G)p.r(A)p.r(A)p.r(G)p.r(U)p.[lna](A)p.r(C)p.r(U)p.[lna](C)p.r(A)p.r(G)p.r(C)p.r(G)p.r(U)p.[lna](A)p.r(A)p.r(G)p.[lna](T)p.[lna](T)}$$$RNA1{StrandType:ss}|RNA2{StrandType:as}$	target mRNA knockdown	%	15
RNA1{r(G)p.r(U)p.r(U)p.r(C)p.r(A)p.r(C)p.r(G)p.r(U)p.r(C)p.r(C)p.r(U)p.r(A)p.r(C)p.r(C)p.r(C)p.r(C)p.r(U)p.r(U)p.r(U)p.r(T)p.r(T)}|RNA2{r(A)p.r(A)p.r(A)p.r(G)p.r(G)p.r(G)p.r(G)p.[fl2r](U)p.r(A)p.r(G)p.r(G)p.r(A)p.r(C)p.r(G)p.r(U)p.r(G)p.r(A)p.r(A)p.r(C)p.r(T)p.r(T)}$$$RNA1{StrandType:ss}|RNA2{StrandType:as}$	target mRNA knockdown	%	69
RNA1{r(C)p.r(C)p.r(C)p.r(U)p.r(C)p.r(C)p.r(C)p.r(C)p.[fl2r](U)p.r(G)p.r(U)p.r(C)p.r(C)p.r(C)p.r(C)p.r(G)p.[fl2r](C)p.r(U)p.r(U)p.r(T)p.r(T)}|RNA2{r(A)p.r(A)p.r(G)p.r(C)p.r(G)p.r(G)p.r(G)p.r(G)p.r(A)p.[fl2r](C)p.r(A)p.r(G)p.r(G)p.r(G)p.r(G)p.r(A)p.r(G)p.r(G)p.r(G)p.r(T)p.r(T)}$$$RNA1{StrandType:ss}|RNA2{StrandType:as}$	target mRNA knockdown	%	72

----------
- assay.conditions: siRNA
HELM strings list units from the 5' end as sugar, base in round brackets, then linkage (d deoxyribose, r ribose, m 2'-O-methyl, p phosphodiester). Strings are as the collection lists them, not checked against the first reports. ss, as = sense and antisense strand; [fl2r] = 2'-fluoro
Overview of reported target mRNA knockdown across a group of substances:

substance	target mRNA knockdown
RNA1{[fl2r](C)p.r(U)p.[fl2r](G)p.r(A)p.[fl2r](C)p.r(C)p.[fl2r](G)p.r(G)p.[fl2r](A)p.r(A)p.[fl2r](G)p.r(C)p.[fl2r](G)p.r(C)p.[fl2r](U)p.r(U)p.[fl2r](A)p.r(A)p.[fl2r](A)p.r(T)p.r(T)}|RNA2{r(U)p.r(U)p.r(U)p.[fl2r](A)p.[fl2r](A)p.r(G)p.r(C)p.r(G)p.r(C)p.r(U)p.r(U)p.r(C)p.r(C)p.r(G)p.r(G)p.r(U)p.r(C)p.[fl2r](A)p.r(G)p.r(T)p.r(T)}$$$RNA1{StrandType:ss}|RNA2{StrandType:as}$	59%
RNA1{m(A)p.m(A)p.r(C)p.r(C)p.r(C)p.m(A)p.r(C)p.r(C)p.m(A)p.r(C)p.m(A)p.r(G)p.r(C)p.m(U)p.m(A)p.r(G)p.m(A)p.m(A)p.r(C)p.m(U)p.m(U)}|RNA2{m(A)p.m(A)p.r(G)p.m(U)p.m(U)p.r(C)p.m(U)p.m(A)p.r(G)p.r(C)p.m(U)p.r(G)p.m(U)p.r(G)p.r(G)p.m(U)p.r(G)p.r(G)p.r(G)p.m(U)p.m(U)}$$$RNA1{StrandType:ss}|RNA2{StrandType:as}$	7%
